These data points were gathered from patent US9802918B2.

# assaySystem: Pim-3 (Homo sapiens (Human), UniProt Q86V86)
pIC50: −log10 of the molar value.
metric: pIC50

Some solved entries appear below for comparison.
1. C[C@@H]1C[C@H](N)CN(c2ccncc2NCc2ccc(F)c(-c3c(F)cc(CN4CC[C@@H](C#N)C4)cc3F)n2)C1 :: ≥ 8.00
2. C[C@@H]1C[C@H](N)CN(c2ccncc2NCc2ccc3occ(C4CC4)c3n2)C1 :: ≥ 8.00
3. C[C@@H]1C[C@H](N)CN(c2c(NCc3ccc(F)c(-c4c(F)cccc4F)n3)cnc3c2CCC3O)C1 (single isomer, unassigned) [Example 87 (Diastereoisomer 1)] :: 7.30 to 8.00
4. C[C@@H]1C[C@H](N)CN(c2ccncc2NCc2ccc(F)c(-c3ccc4c(c3)NC(=O)C4)n2)C1 :: ≥ 8.00
5. C[C@@H]1C[C@H](N)CN(c2ccncc2NCc2ccc(F)c(-c3c(F)cc(OC4CCOCC4)cc3F)n2)C1 :: ≥ 8.00

Batch lookup, pIC50 per entry.
1. C[C@H]1CN(c2ccncc2NCc2ccc(F)c(-c3c(F)cc(CN4CC[C@@H](O)C4)cc3F)n2)C[C@@H](N)[C@@H]1O
2. C[C@@H]1C[C@H](N)CN(c2ccncc2NCc2ccc(F)c(-c3c(F)cc(N4CC(C)(O)C4)cc3F)n2)C1
3. C[C@@H]1C[C@H](N)C[C@H](c2ccncc2NCc2ccc(F)c(-c3c(F)cc(C4(O)CCC4)cc3F)n2)C1
4. C[C@H]1CN(c2ccncc2NCc2ccc(F)c(-c3c(F)cc(CN4CC[C@@H](C#N)C4)cc3F)n2)C[C@@H](N)[C@@H]1O
5. C[C@@H]1C[C@H](N)CN(c2c(NCc3ccc(F)c(-c4c(F)cccc4F)n3)cnc3c2CC[C@H]3O)C1 (single isomer, unassigned) [Example 87 (Diastereoisomer 2)]
6. COc1cccc(F)c1-c1nc(CNc2cnccc2N2C[C@H](C)C[C@H](N)C2)ccc1F
7. C[C@H]1CN(c2ccncc2NCc2ccc(F)c(-c3c(F)cc(C4(O)CC4)cc3F)n2)C[C@@H](N)[C@@H]1O

≥ 8.00
≥ 8.00
≥ 8.00
≥ 8.00
7.30 to 8.00
7.30 to 8.00
≥ 8.00

Entry C[C@@H]1C[C@H](N)CN(c2ccncc2NCc2ccc(F)c(-c3c(F)cc(CN4CC[C@H](O)C4)cc3F)n2)C1 : reported pIC50 = ? ≥ 8.00
